// provenance: patent US11198713B2

Molecular target: full-length beta-catenin (Axin site) (Homo sapiens)
Construct: 15 nM full-length beta-catenin, 20 nM FITC labeled peptide in buffer
Sequence (P35222 whole entry): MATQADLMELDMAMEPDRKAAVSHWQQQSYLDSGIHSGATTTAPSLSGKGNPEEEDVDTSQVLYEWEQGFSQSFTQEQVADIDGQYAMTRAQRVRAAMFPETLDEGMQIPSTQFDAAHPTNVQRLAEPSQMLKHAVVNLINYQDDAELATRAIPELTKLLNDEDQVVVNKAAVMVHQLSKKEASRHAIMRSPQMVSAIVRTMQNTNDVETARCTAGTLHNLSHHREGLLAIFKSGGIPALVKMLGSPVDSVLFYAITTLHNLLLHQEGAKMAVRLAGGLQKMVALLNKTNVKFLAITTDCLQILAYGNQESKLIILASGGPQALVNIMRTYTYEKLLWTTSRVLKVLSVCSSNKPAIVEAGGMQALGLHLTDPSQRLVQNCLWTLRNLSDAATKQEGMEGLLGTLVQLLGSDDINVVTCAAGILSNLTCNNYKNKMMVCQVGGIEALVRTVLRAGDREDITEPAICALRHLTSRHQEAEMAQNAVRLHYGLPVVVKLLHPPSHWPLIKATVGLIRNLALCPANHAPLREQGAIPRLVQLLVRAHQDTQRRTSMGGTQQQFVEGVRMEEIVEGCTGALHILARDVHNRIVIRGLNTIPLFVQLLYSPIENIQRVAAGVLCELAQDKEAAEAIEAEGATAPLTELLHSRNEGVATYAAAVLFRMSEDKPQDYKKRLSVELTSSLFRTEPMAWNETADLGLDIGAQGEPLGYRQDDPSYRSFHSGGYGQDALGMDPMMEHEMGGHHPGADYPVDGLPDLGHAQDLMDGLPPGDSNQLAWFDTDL
Assay: Competition fluorescence polarization assay (Axin site probe)
Assay type: binding
Conditions: competition fluorescence polarization, Table 2; read-out: in vitro FP EC50
Description: FIG. 1. […] Peptide solutions were prepared in buffer (50 mM Tris pH 8.0, 250 mM NaCl, 2% glycerol, 0.5 mM EDTA, 0.02% w/v sodium azide) using a 3-fold serial dilution from 5 μM. […] Equal volume of the titrated peptide was added to the plate and incubated protected from light for 15 minutes prior to read. Reads were performed on a Spectramax M5 (Molecular Devices) in duplicate. FIG. 7. […] Reads were performed on a Spectramax M5 (Molecular Devices) in duplicate. […]
pEC50: −log10 of the molar value. Numbered stars: 1 amine (or outer) side, 2 acyl side, 3 side chain; on linkers, the order of the positions; unused ones are H or OH. Bridge positions count the residues as written; N and C are the ends. Square brackets hold non-standard residues; d marks the D form. Peptide text beside a SMILES is read from it. dαMeDap(Me) = CN(C[C@@](C)(N[*:1])C(=O)[*:2])[*:3]; X16 = C=CCOC(=O)N1CC[C@@](N[*:1])(C(=O)[*:2])C1; X3 = O=C([C@@]1(N[*:1])CCN([*:3])C1)[*:2]; X2 = O=C(OCC=CCOC(=O)[*:2])[*:1]; R8 = C=CCCCCCC[C@@](C)(N)C(=O)O
Recorded endpoint: pEC50

A selection of reference data follows.
[[record]]
molecule = "CC[C@H](C)[C@@H]1NC(=O)[C@@]2(NC(=O)[C@H](CCC(N)=O)NC(=O)[C@@H]3CCCN3C(C)=O)CCN(C2)C(=O)OCC=CCCCC[C@](C)(C(=O)N[C@@H](Cc2c[nH]cn2)C(=O)N[C@H](C(=O)N[C@@H](CCCNC(=N)N)C(=O)N[C@@H](CCCNC(=N)N)C(=O)N[C@H](C(=O)N[C@@H](Cc2c[nH]c3ccccc23)C(=O)N[C@@H](CCCNC(=N)N)C(N)=O)C(C)C)C(C)C)NC(=O)[C@H](CC(=O)O)NC(=O)[C@H](CC(C)C)NC1=O (single isomer, unassigned) [FP0745c, Ac-P-Q-MC-I-L-D-R6-H-V-R-R-V-W-R-NH2]"
tested_system = "full-length beta-catenin (Axin site) (Homo sapiens)"
value = "6.30 to 7.00"

[[record]]
molecule = "CC[C@H](C)[C@@H]1NC(=O)[C@](C)(NC(=O)[C@H](CCC(N)=O)NC(=O)[C@@H]2CCCN2C(C)=O)CCCN(C)C(=O)OCC=CCCC[C@](C)(C(=O)N[C@@H](Cc2c[nH]cn2)C(=O)N[C@H](C(=O)N[C@@H](CCCNC(=N)N)C(=O)N[C@@H](CCCNC(=N)N)C(=O)N[C@H](C(=O)N[C@@H](Cc2c[nH]c3ccccc23)C(=O)N[C@@H](CCCNC(=N)N)C(N)=O)C(C)C)C(C)C)NC(=O)[C@H](CC(=O)O)NC(=O)[C@H](CC(C)C)NC1=O (single isomer, unassigned) [FP0783c, Ac-P-Q-MI-I-L-D-R5-H-V-R-R-V-W-R-NH2]"
tested_system = "full-length beta-catenin (Axin site) (Homo sapiens)"
value = "5.30 to 6.30"

[[record]]
molecule = "CC[C@H](C)[C@@H]1NC(=O)[C@@](C)(NC(=O)[C@H](CCC(N)=O)NC(=O)[C@@H]2CCCN2C(C)=O)CCCCCC=CCOC(=O)N2CC(C(=O)N[C@@H](Cc3c[nH]cn3)C(=O)N[C@H](C(=O)N[C@@H](CCCNC(=N)N)C(=O)N[C@@H](CCCNC(=N)N)C(=O)N[C@H](C(=O)N[C@@H](Cc3c[nH]c4ccccc34)C(=O)N[C@@H](CCCNC(=N)N)C(N)=O)C(C)C)C(C)C)(C2)NC(=O)[C@H](CC(=O)O)NC(=O)[C@H](CC(C)C)NC1=O (single isomer, unassigned) [FP0738c, Ac-P-Q-S7-I-L-D-MA-H-V-R-R-V-W-R-NH2]"
tested_system = "full-length beta-catenin (Axin site) (Homo sapiens)"
value = "5.30 to 6.30"

[[record]]
molecule = "C=CCCCCCC[C@@](C)(NC(=O)[C@H](C)NC(C)=O)C(=O)N[C@H](C(=O)N[C@@H](CC(C)C)C(=O)N[C@@H](CC(=O)O)C(=O)N[C@@H](C)C(=O)N[C@@H](Cc1c[nH]cn1)C(=O)N[C@H](C(=O)N[C@@]1(C(=O)N[C@@H](CCCNC(=N)N)C(=O)N[C@H](C(=O)N[C@@H](Cc2c[nH]c3ccccc23)C(N)=O)C(C)C)CCN(C(=O)OCC=C)C1)[C@@H](C)CC)[C@@H](C)CC [FP0217u, Ac-A-R8-I-L-D-A-H-I-MB-R-V-W-NH2] (Ac-A[R8]ILDAHI[X16]RVW-NH2)"
tested_system = "full-length beta-catenin (Axin site) (Homo sapiens)"
value = "> 7.00"

[[record]]
molecule = "CC[C@H](C)[C@@H]1NC(=O)[C@H](Cc2ccccn2)NC(=O)[C@H](C)NC(=O)[C@H](CC(=O)O)NC(=O)[C@H](CC(C)C)NC(=O)[C@H]([C@@H](C)CC)NC(=O)[C@](C)(NC(=O)[C@H](C)NC(C)=O)CCCCCCC=CCOC(=O)N2CC[C@@](C(=O)N[C@@H](CC(C)C)C(=O)N[C@H](C(=O)N[C@@H](Cc3c[nH]c4ccccc34)C(N)=O)C(C)C)(C2)NC1=O (single isomer, unassigned) [FP0557c Isomer 1, Ac-A-R8-I-L-D-A-2pyr-I-MB-L-V-W-NH2]"
tested_system = "full-length beta-catenin (Axin site) (Homo sapiens)"
value = "< 5.30"


The molecule listed as CC[C@H](C)[C@@H]1NC(=O)[C@H](Cc2ccccn2)NC(=O)[C@H](C)NC(=O)[C@H](CC(=O)O)NC(=O)[C@H](CC(C)C)NC(=O)[C@H]([C@@H](C)CC)NC(=O)[C@](C)(NC(=O)[C@H](C)NC(C)=O)CCCCCCC=CCOC(=O)N2CC[C@@](C(=O)N[C@H](C(=O)N[C@H](C(=O)N[C@@H](Cc3c[nH]c4ccccc34)C(N)=O)C(C)C)C(C)C)(C2)NC1=O (single isomer, unassigned) [FP0562c Isomer 1, Ac-A-R8-I-L-D-A-2pyr-I-MB-V-V-W-NH2] has a reported pEC50 of < 5.30

The molecule listed as CC[C@H](C)[C@@H]1NC(=O)[C@H](Cc2c[nH]cn2)NC(=O)[C@H](C)NC(=O)[C@H](CC(=O)O)NC(=O)[C@H](CC(C)C)NC(=O)[C@H]([C@@H](C)CC)NC(=O)[C@](C)(NC(=O)[C@H](C)NC(C)=O)CN(C)C(=O)OCC=CCOC(=O)N2CC[C@](C(=O)N[C@@H](CCCNC(=N)N)C(=O)N[C@H](C(=O)N[C@@H](Cc3c[nH]c4ccccc34)C(N)=O)C(C)C)(C2)NC1=O [FP0605c, Ac-A-ME-I-L-D-A-H-I-MC-R-V-W-NH2] (Ac-A[dαMeDap(Me)]ILDAHI[X3]RVW-NH2; linker 2-9 via X2) has a reported pEC50 of > 7.00
